These data points were gathered from patent US10278942B2.

# target_under_test: HIF-2α HIS TAG-PASB Domain (Homo sapiens)
# Construct: 100 nM HIF-2α HIS TAG-PASB Domain
# assay: HIF-2α Scintillation Proximity Assay (SPA)
# Format: binding
# condition_description: read-out: Scintillation Proximity Assay IC50
experimental_endpoint: IC50

Check out these entries, answers already filled in.
compound	target_under_test	experimental_endpoint	result
N#Cc1cc(S(=N)(=O)C(F)(F)F)ccc1Oc1cc(F)cc(Cl)c1 (centres unmarked)	HIF-2α HIS TAG-PASB Domain (Homo sapiens)	IC50	250 to 1000 nM
O=C1c2c(C(F)(F)F)ccc(OCC(F)F)c2CC1F (centres unmarked)	HIF-2α HIS TAG-PASB Domain (Homo sapiens)	IC50	> 1000 nM
CCCOc1ccc(C(F)(F)F)c2c1CC(F)(F)/C2=N\O	HIF-2α HIS TAG-PASB Domain (Homo sapiens)	IC50	250 to 1000 nM
NC(=O)Cc1ccc(S(=O)(=O)C(F)(F)F)c2c1CC(F)(F)[C@H]2O	HIF-2α HIS TAG-PASB Domain (Homo sapiens)	IC50	> 1000 nM

// moving on: another record for IC50
Q. Which IC50 is listed for N=S1(=O)c2ccc(Oc3cc(F)cc(F)c3)c(Br)c2C(O)C1(F)F (centres unmarked) [Compound 377] ?
A. > 1000 nM

* * *

# target_under_test: HIF-2α HIS TAG-PASB Domain (Homo sapiens)
# Construct: 100 nM HIF-2α HIS TAG-PASB Domain
# assay: HIF-2α Scintillation Proximity Assay (SPA)
# Type: binding
# condition_description: read-out: Scintillation Proximity Assay IC50
Recorded IC50 for the following molecules

Check out these entries, answers already filled in.
molecule	result
N#Cc1c(Oc2cc(F)cc(Cl)c2)ccc(S(=O)(=O)C(F)(F)F)c1NCCO	> 1000 nM
Fc1cc(F)cc(Oc2ncc(Br)c3c2CCC3)c1	> 1000 nM
C=C1CC(O)c2c(S(C)(=O)=O)ccc(Oc3cc(F)cc(Cl)c3)c21 (centres unmarked)	> 1000 nM

Q. Which IC50 is listed for `CS(=O)(=O)c1ccc(N2CCC[C@H](O)C2)c2c1[C@H](O)C(F)(F)[C@@H]2F` ?
A. > 1000 nM

Q. Which IC50 is listed for `N#Cc1c(Oc2cc(F)cc(F)c2)ccc2c1[C@@H](O)CS2(=O)=O` ?
A. 50 to 249 nM

Q. Which IC50 is listed for O=S(=O)(c1ccc(Cc2ccccc2)c2c1C(O)C(F)(F)C2)C(F)(F)F (centres unmarked) ?
A. 250 to 1000 nM

Q. Which IC50 is listed for `N#Cc1cc(F)cc(-c2ccc(S(=O)(=O)C(F)(F)F)c3c2CC(F)(F)[C@H]3O)c1` ?
A. < 50 nM

Q. Which IC50 is listed for `Cc1c(Oc2cc(F)cc(C#N)c2)ccc(S(=O)(=O)C(F)(F)F)c1CO` ?
A. 50 to 249 nM

* * *

# target_under_test: HIF-2α HIS TAG-PASB Domain (Homo sapiens)
# Construct: 100 nM HIF-2α HIS TAG-PASB Domain
# assay: HIF-2α Scintillation Proximity Assay (SPA)
# Assay type: binding
# condition_description: read-out: Scintillation Proximity Assay IC50
pIC50: −log10 of the molar value.
experimental_endpoint: pIC50

Check out these entries, answers already filled in.
compound	pIC50
O=S(=O)(c1ccc(OC2CCC(O)CC2)c2c1C(O)CC2)C(F)(F)F (centres unmarked) [Compound 615]	< 6.00
CC(C)(C)OC(=O)NCc1c(S(=O)(=O)C(F)F)ccc(Oc2cc(F)cc(Cl)c2)c1Br [Compound 83]	< 6.00

Q. Which pIC50 is listed for C[C@]1(C#N)C[C@@H](Oc2ccc(S(=O)(=O)C(F)(F)F)c3c2CC(F)(F)[C@H]3O)C1 [Compound 789] ?
A. > 7.30

Q. Which pIC50 is listed for CS(=O)(=O)c1ccc(Oc2cc(F)cc(Cl)c2)c2c1[C@H](O)C(F)(F)C2 [Compound 160] ?
A. > 7.30

Q. Which pIC50 is listed for O=S(=O)(CF)c1ccc(OC2CC(F)(F)C2)c2c1[C@H](O)C(F)(F)[C@@H]2F [Compound 576] ?
A. > 7.30

Q. Which pIC50 is listed for O=S(=O)(c1ccc(-c2cn[nH]c2)c2c1[C@H](O)C(F)(F)C2)C(F)(F)F [Compound 560] ?
A. < 6.00

Q. Which pIC50 is listed for O=S(=O)(c1ccc(-c2ccc3cn[nH]c3c2)c2c1[C@H](O)C(F)(F)C2)C(F)(F)F [Compound 568] ?
A. < 6.00

Q. Which pIC50 is listed for OC1c2c(I)ccc(OCC(F)F)c2CC1(F)F (centres unmarked) [Compound 681] ?
A. 6.60 to 7.30

Q. Which pIC50 is listed for N#Cc1cc(S(=O)(=O)C(F)F)ccc1Oc1cc(F)cc(Cl)c1 [Compound 133] ?
A. 6.00 to 6.60

Q. Which pIC50 is listed for CS(=O)(=O)c1ccc(C(F)(F)CO)c2c1[C@H](O)C(F)(F)C2 [Compound 556] ?
A. < 6.00

Q. Which pIC50 is listed for N#Cc1cc(F)cc(Oc2ccc(S(=O)(=O)C(F)F)c(C#N)c2Cl)c1 [Compound 39] ?
A. 6.60 to 7.30

Q. Which pIC50 is listed for N#CC1(CCOc2ccc(S(=O)(=O)C(F)(F)F)c3c2CC(F)(F)[C@H]3O)COC1 [Compound 749] ?
A. 6.00 to 6.60

Q. Which pIC50 is listed for CS(=O)(=O)c1ccc(Oc2cncc(F)c2)c2c1[C@H](O)C(F)(F)[C@@H]2F [Compound 329] ?
A. > 7.30

Q. Which pIC50 is listed for N#Cc1cc(F)cc(Oc2ccc3c(c2Br)[C@@H](O)CS3(=O)=O)c1 [Compound 415] ?
A. < 6.00

Q. Which pIC50 is listed for O=S1(=O)c2ccc(Oc3cccc4cn[nH]c34)c(C(F)F)c2C(O)C1(F)F (centres unmarked) [Compound 441] ?
A. < 6.00

Q. Which pIC50 is listed for CC(=O)NCCOc1ccc(S(=O)(=O)C(F)(F)F)c2c1CC(F)(F)C2O (centres unmarked) [Compound 636] ?
A. < 6.00

Q. Which pIC50 is listed for C[C@]1(F)Cc2c(Oc3cc(F)cc(C#N)c3)ccc(S(C)(=O)=O)c2[C@@H]1O [Compound 298] ?
A. < 6.00

* * *

Recorded pIC50 for the following compounds
# target_under_test: HIF-2α HIS TAG-PASB Domain (Homo sapiens, UniProt Q99814)
# Construct: 100 nM HIF-2α HIS TAG-PASB Domain
# Sequence (Q99814 240-350 limits assumed): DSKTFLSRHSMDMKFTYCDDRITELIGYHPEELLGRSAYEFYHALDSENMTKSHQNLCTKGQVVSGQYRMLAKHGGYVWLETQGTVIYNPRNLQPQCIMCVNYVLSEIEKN
# assay: HIF-2α Scintillation Proximity Assay (SPA)
# Format: binding
# condition_description: read-out: Scintillation Proximity Assay IC50
pIC50: −log10 of the molar value.

Check out these entries, answers already filled in.
compound	result
OC1c2c(Br)ccc(OC(F)(F)F)c2CC1(F)F (centres unmarked)	< 6.00
CS(=O)(=NC#N)c1ccc(Oc2cc(F)cc(C#N)c2)c2c1[C@H](O)C(F)(F)[C@@H]2F (some centres unmarked)	> 7.30

Q. Give pIC50 (HIF-2α HIS TAG-PASB Domain (Homo sapiens, UniProt Q99814)) of the following compound: COc1ccc(S(=O)(=O)C(F)(F)F)c2c1CC(F)(F)C2O (centres unmarked)
A. < 6.00

Q. Give pIC50 (HIF-2α HIS TAG-PASB Domain (Homo sapiens, UniProt Q99814)) of the following compound: O=S(=O)(c1ccc(Oc2cc(F)cc(Cl)c2)c2c1COC2O)C(F)F (centres unmarked)
A. < 6.00

* * *

# target_under_test: HIF-2α HIS TAG-PASB Domain (Homo sapiens, UniProt Q99814)
# Construct: 100 nM HIF-2α HIS TAG-PASB Domain
# assay: HIF-2α Scintillation Proximity Assay (SPA)
# Assay type: binding
# condition_description: read-out: Scintillation Proximity Assay IC50
experimental_endpoint: IC50

Check out these entries, answers already filled in.
compound	IC50
CS(=O)(=NC#N)c1ccc(Oc2cc(F)cc(C#N)c2)c2c1[C@H](O)C(F)(F)C2 (stereo partly drawn) [Compound 245]	< 0.05 µM
CCOc1ccc(S(=O)(=O)C(F)F)c2c1CC(F)(F)[C@H]2O	0.25 to 1 µM
CS(=O)(=O)c1ccc(Oc2cc(F)cc(C#N)c2)c2c1[C@H](O)[C@H](F)[C@@H]2O	> 1 µM
CS(=N)(=O)c1ccc(Oc2cc(F)cc(F)c2)c2c1C(O)CC2 (stereo not drawn)	0.25 to 1 µM
N#Cc1cc(F)cc(Oc2ccc(S(=N)(=O)C(F)(F)F)c3c2CC(F)(F)[C@H]3O)c1 (stereo partly drawn)	< 0.05 µM

Q. Which IC50 is listed for CS(=O)(=O)N1CCC(Oc2ccc(S(=O)(=O)C(F)(F)F)c3c2CC(F)(F)C3O)C1 (stereo not drawn) ?
A. > 1 µM

Q. Which IC50 is listed for `O=S1(=O)CCC(Oc2ccc(S(=O)(=O)C(F)(F)F)c3c2CC(F)(F)[C@H]3O)CC1` ?
A. > 1 µM

Q. Which IC50 is listed for `N#Cc1c(S(=O)(=O)C(F)F)ccc(Oc2cc(F)cc(Cl)c2)c1Cl` ?
A. 0.05 to 0.249 µM
